biological target: MAPK13 (Homo sapiens (Human)); settings: read-out: MAPK13 inhibition
Sequence (O15264 whole entry): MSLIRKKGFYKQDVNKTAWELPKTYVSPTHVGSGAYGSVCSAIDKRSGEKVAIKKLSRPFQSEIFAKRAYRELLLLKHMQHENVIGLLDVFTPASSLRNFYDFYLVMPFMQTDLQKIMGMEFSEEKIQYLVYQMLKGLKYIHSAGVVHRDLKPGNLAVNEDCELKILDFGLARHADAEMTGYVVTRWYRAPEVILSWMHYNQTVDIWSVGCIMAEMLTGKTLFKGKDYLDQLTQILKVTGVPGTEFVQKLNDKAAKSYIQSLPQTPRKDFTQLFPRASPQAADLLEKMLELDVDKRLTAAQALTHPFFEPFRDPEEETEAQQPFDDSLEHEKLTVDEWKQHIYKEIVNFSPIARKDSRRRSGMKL
quantity_kind: IC50

                                smiles_text              system_under_test  quantity_kind    reading
0  CC(=O)Nc1cc(CCc2ccc(NC(=O)Nc3cccc(C(C)(C)C)c3)c(F)c2)ccn1  MAPK13 (Homo sapiens (Human))           IC50  > 1000 nM
1  CC(C)n1nc(C(C)(C)C)cc1NC(=O)Nc1ccc(CCc2ccnc(NC(=O)C3CC3)c2)cc1F  MAPK13 (Homo sapiens (Human))           IC50  > 1000 nM
2  COCCC(=O)Nc1cc(CCc2cnc(NC(=O)Nc3cc(C(C)(C)C)nn3CC3CC3)s2)ccn1  MAPK13 (Homo sapiens (Human))           IC50   < 250 nM
3  Cc1ccc(-n2nc(C(C)(C)C)cc2NC(=O)Nc2ncc(CCc3ccnc(NC(=O)C4CC4)c3)s2)cc1  MAPK13 (Homo sapiens (Human))           IC50   < 250 nM
